Entry source: ChEMBL document CHEMBL1201862

Below, each of the molecules is paired with its reported GI50 value.
- Tested on: TK-10
- assay details: NCI tumour cell line growth inhibition, 48 h
Activity calls are given as the source filed them. Cut-off read from the data, not from the text of the source: active = GI50 up to about 1.1 µM and inactive = higher.

The examples below pair each entry with its known result.
# CC(=O)OCCC(O[Si](c1ccccc1)(c1ccccc1)C(C)(C)C)C(C)(C)O (centres undefined) with TK-10: GI50 is 34.4 µM (inactive)

# CCCC(Sc1nc(N)nc2nc[nH]c12)C(=O)O (centres undefined) with TK-10: GI50 is 26.6 µM (inactive)

# COc1ccc(/C=C2\N=C(SC)NC2=O)cc1 with TK-10: GI50 is 86.1 µM (inactive)

---
# COc1cc(-c2coc3c(OC)c(OC4OC(COC5OC(C)C(O)C(O)C5O)C(O)C(O)C4O)c(OC)c(O)c3c2=O)cc(C)c1O (centres undefined) with TK-10: GI50 is 34.8 µM (inactive)

###

Below, each of the molecules is paired with its reported GI50 value.
- Tested on: SK-MEL-28
- assay details: NCI tumour cell line growth inhibition, 48 h
Structures can show the parent of a compound that is named as a salt. The source made the active and inactive calls. No stated cut-off is given here; in the data, active = GI50 up to about 1.1 µM and inactive = higher.

The examples below pair each entry with its known result.
response.value for COc1cc2cc(C(=O)N3CC(CCl)c4c3cc([N+](=O)[O-])c3ccccc43)[nH]c2c(OC)c1OC (configuration not stated) (field: GI50) = > 100 µM (inactive)

response.value for COc1ccc(COCCOCc2nc(C#N)c(N)o2)cc1 (field: GI50) = > 100 µM (inactive)

response.value for CC(/C=N\NC(=S)N(C)C)=N/NC(=S)N(C)C (field: GI50) = 4.52 µM (inactive)

response.value for COC(CO[Si](C)(C)N[Si](C)(C)OCC(OC)c1ccccc1)c1ccccc1 (configuration not stated) (field: GI50) = > 100 µM (inactive)

response.value for Nc1csc(-c2scc3c2OCCO3)c1N (field: GI50) = 17.5 µM (inactive)

response.value for c1ccc2cc(OCC3CO3)c(OCC3CO3)cc2c1 (configuration not stated) (field: GI50) = 11.9 µM (inactive)

response.value for CCCCCCCCCCCCCCCCSCC(COC)COP(=O)([O-])OCC[N+](C)(C)C (configuration not stated) [ILMOFOSINE] (field: GI50) = 15.5 µM (inactive)

response.value for CC(C)c1cc(Cl)nc(Cl)n1 (field: GI50) = > 100 µM (inactive)

---
response.value for N[C@@H](Cc1ccc(N(CCCl)CCCl)cc1)C(=O)O [MELPHALAN HYDROCHLORIDE] (field: GI50) = 57.8 µM (inactive)

response.value for CC(=O)OC(C[C@H](C)[C@@H]1CC[C@]2(C)C3=CCC4C(C)(C)C(=O)CC[C@]4(C)C3CCC12C)C1OC1(C)C (some centres not stated) (field: GI50) = 27.3 µM (inactive)

response.value for O=C(CC(c1ccccc1)N1CCCCC1)c1ccccc1 (configuration not stated) (field: GI50) = 17.8 µM (inactive)

response.value for NC(=S)N1N=C2c3ccccc3CC[C@@H]2[C@@H]1c1ccccc1 (field: GI50) = 9.84 µM (inactive)

response.value for CCN(CC)CC[S+]([O-])c1c2cc(OC)ccc2nc2ccc(OC)cc12 (configuration not stated) (field: GI50) = 14.7 µM (inactive)

response.value for Clc1ccc(C2ON=C(c3ccccc3)N2C23CC4CC(CC(C4)C2)C3)cc1Cl (configuration not stated) (field: GI50) = 7.93 µM (inactive)

response.value for Nc1n/c(=N\c2ccccc2)ss1 (field: GI50) = > 100 µM (inactive)

response.value for Cc1ccc(S(=O)(=O)N/N=C2\CCCCC23CCC(=O)NC3)cc1 (configuration not stated) (field: GI50) = > 100 µM (inactive)

response.value for CC(=O)c1c2c(cc3c1CC1(C3)Cc3cc4c(c(C(=O)O)c3C1)CCCC4)CCCC2.CC(N)c1ccccc1 (configuration not stated) (field: GI50) = 33.4 µM (inactive)
